- Test system: MCF7
- run description: Cytotoxicity against human MCF7 cells after 48 hrs by SRB assay
- Assay type: functional, cell-based
- conditions used: MCF7, 48 h
Attribute: pIC50
Reminder that pIC50 is minus the log10 of a molar concentration.

CC(C)CCC[C@]1(C)OC(=O)[C@]23CC=C4[C@@H](CC[C@H]5C(C)(C)[C@@H](O[C@@H]6OC[C@@H](OS(=O)(=O)O)[C@H](O)[C@H]6O[C@H]6O[C@H](C)[C@H](O[C@@H]7O[C@H](COS(=O)(=O)O)[C@@H](O)[C@H](O)[C@H]7O)[C@H](O)[C@H]6O)CC[C@]45C)[C@]2(C)CC(=O)[C@@H]31 :: 6.25

Moving on to another compound below.
## Input Please give the measured pIC50 for this compound: C=C(C)CCC[C@]1(C)OC(=O)[C@]23CC=C4[C@@H](CC[C@H]5C(C)(C)[C@@H](O[C@@H]6OC[C@@H](OS(=O)(=O)O)[C@H](O)[C@H]6O[C@H]6O[C@H](C)[C@@H](O)[C@H](O)[C@H]6O)CC[C@]45C)[C@]2(C)CC(=O)[C@@H]31
## Output 5.88

---

- Tested on: MCF7
- run description: Cytotoxicity against human MCF7 cells after 48 hrs by SRB assay
- Type: functional, cell-based
- conditions used: MCF7, 48 h
Below, each entry is listed with its recorded pIC50.
A value of pIC50 is the negative decimal logarithm of a concentration given in moles per litre.

C=C(C)CCC[C@]1(C)OC(=O)[C@]23CC=C4[C@@H](CC[C@H]5C(C)(C)[C@@H](O[C@@H]6OC[C@@H](OS(=O)(=O)O)[C@H](O)[C@H]6O[C@H]6O[C@H](C)[C@H](O[C@@H]7O[C@H](COS(=O)(=O)O)[C@@H](O)[C@H](O)[C@H]7O)[C@H](O)[C@H]6O)CC[C@]45C)[C@]2(C)CC(=O)[C@@H]31 :: 5.99
CC(C)CCC[C@]1(C)OC(=O)[C@]23CC=C4[C@@H](CC[C@H]5C(C)(C)[C@@H](O[C@@H]6OC[C@@H](OS(=O)(=O)O)[C@H](O)[C@H]6O[C@H]6O[C@H](C)[C@@H](O)[C@H](O)[C@H]6O)CC[C@]45C)[C@]2(C)CC(=O)[C@@H]31 :: 5.96

Next compound, please.
## Input Form field: pIC50 recorded for C=C(C)CCC[C@]1(C)OC(=O)[C@]23CC=C4[C@@H](CC[C@H]5C(C)(C)[C@@H](O[C@@H]6OC[C@@H](OS(=O)(=O)O)[C@H](O)[C@H]6O[C@@H]6O[C@H](C)[C@@H](O[C@@H]7O[C@H](COS(=O)(=O)O)[C@@H](O)[C@H](O[C@@H]8O[C@H](CO)[C@@H](O)[C@H](OC)[C@H]8O)[C@H]7O)[C@H](O)[C@H]6O[C@@H]6OC[C@@H](O)[C@H](O)[C@H]6O)CC[C@]45C)[C@]2(C)CC(=O)[C@@H]31 with MCF7 (enter value)
## Output 6.70

---

- System: SK-MEL-2
- run description: Cytotoxicity against human SK-MEL-2 cells after 48 hrs by SRB assay
- Format: functional, cell-based
- conditions used: SK-MEL-2, 48 h
Reported pIC50 values are given for each entry in this list.
Please express pIC50 as -log10 of the molar concentration.

## Input Give pIC50 (SK-MEL-2) of the following compound: CO[C@@H]1[C@@H](O)[C@H](O[C@@H]2[C@@H](O)[C@H](O[C@H]3[C@H](O)[C@@H](O)[C@H](O[C@H]4[C@H](O[C@H]5CC[C@]6(C)[C@H]7CC[C@]89C(=O)O[C@@](C)(CCC=C(C)C)[C@H]8[C@@H](OC(C)=O)C[C@@]9(C)C7=CC[C@H]6C5(C)C)OC[C@@H](OS(=O)(=O)O)[C@@H]4O)O[C@@H]3C)OC[C@H]2O)O[C@H](CO)[C@H]1O
## Output 6.07

## Input API: value(readout=pIC50, system=SK-MEL-2) for record CO[C@@H]1[C@@H](O)[C@H](O[C@@H]2[C@@H](O)[C@H](O[C@H]3[C@H](O)[C@@H](O[C@@H]4OC[C@@H](O)[C@H](O)[C@H]4O)[C@H](O[C@H]4[C@H](O[C@H]5CC[C@]6(C)C7=CC[C@]89C(=O)O[C@@](C)(CCCC(C)C)[C@H]8C(=O)C[C@@]9(C)[C@@H]7CC[C@H]6C5(C)C)OC[C@@H](OS(=O)(=O)O)[C@@H]4O)O[C@@H]3C)O[C@H](COS(=O)(=O)O)[C@H]2O)O[C@H](CO)[C@H]1O
## Output 6.96

## Input Any idea what pIC50 came out for Cc1c2ccncc2c(C)c2c1[nH]c1ccccc12 on SK-MEL-2?
## Output 5.67
